# System: Enterococcus faecalis
# Experimental details: Antibacterial activity against penicillin-susceptible Enterococcus faecalis ATCC29212 assessed as reduction in bacterial growth by broth microdilution assay
# Format: functional
Reported MIC by item:

COc1c2c(c3c(c1C(=O)/C=C/c1ccc(OCCC[N+](C)(C)CCCN)cc1)OC(C)(CCC=C(C)C)C=C3)OC(C)(CCC=C(C)C)C=C2 (centres undefined) :: > 128 µg/mL
CCNCCCOc1ccc(/C=C/C(=O)c2c(OC)c3c(c4c2OC(C)(CCC=C(C)C)C=C4)OC(C)(CCC=C(C)C)C=C3)cc1 (centres undefined) :: > 128 µg/mL

[ask] Record request: MIC value, item COc1c2c(c3c(c1C(=O)/C=C/c1ccc(OCCCN(CCCN(C)C)CCCN(C)C)cc1)OC(C)(CCC=C(C)C)C=C3)OC(C)(CCC=C(C)C)C=C2 (centres undefined)
[reply] 8 µg/mL

[ask] Follow-up item: COc1c2c(c3c(c1C(=O)/C=C/c1ccc(OCCCN4CCSCC4)cc1)OC(C)(CCC=C(C)C)C=C3)OC(C)(CCC=C(C)C)C=C2 (centres undefined)
[reply] > 128 µg/mL

---

Reported MIC by item:
# Tested on: Enterococcus faecalis
# Experimental details: Antibacterial activity against penicillin-susceptible Enterococcus faecalis ATCC29212 assessed as reduction in bacterial growth by broth microdilution assay
# Type: functional
Express your answer as a number followed by its unit.

Worked set:
CNCCN(C)C(=O)COc1c2c(c3c(c1C(C)=O)OC(C)(CCC=C(C)C)C=C3)OC(C)(CCC=C(C)C)C=C2 (configuration not stated) :: 8 µg/mL
COc1c2c(c3c(c1C(=O)/C=C/c1ccc(OCCCN(C)CCCN(C)C)cc1)OC(C)(CCC=C(C)C)C=C3)OC(C)(CCC=C(C)C)C=C2 (configuration not stated) :: 16 µg/mL
CCN(CC)CCCNC(=O)COc1c2c(c3c(c1C(C)=O)OC(C)(CCC=C(C)C)C=C3)OC(C)(CCC=C(C)C)C=C2 (configuration not stated) :: 2 µg/mL
COc1c2c(c3c(c1C(=O)/C=C/c1ccc(OCCC[N+](C)(C)CCCN(C)C)cc1)OC(C)(CCC=C(C)C)C=C3)OC(C)(CCC=C(C)C)C=C2 (configuration not stated) :: 16 µg/mL
CN[C@H](CC(C)C)C(=O)N[C@H]1C(=O)N[C@@H](CC(N)=O)C(=O)N[C@H]2C(=O)N[C@H]3C(=O)N[C@H](C(=O)N[C@H](C(=O)O)c4cc(O)cc(O)c4-c4cc3ccc4O)[C@H](O)c3ccc(c(Cl)c3)Oc3cc2cc(c3O[C@@H]2O[C@H](CO)[C@@H](O)[C@H](O)[C@H]2O[C@H]2C[C@](C)(N)[C@H](O)[C@H](C)O2)Oc2ccc(cc2Cl)[C@H]1O :: 2 µg/mL

[ask] Record request: MIC value, item CC[N+](CC)(CC)CCCOc1ccc(/C=C/C(=O)c2c(OC)c3c(c4c2OC(C)(CCC=C(C)C)C=C4)OC(C)(CCC=C(C)C)C=C3)cc1 (configuration not stated)
[reply] 32 µg/mL

[ask] Follow-up item: CC(=O)c1c(OCC(=O)NCCCN2CCCC2)c2c(c3c1OC(C)(CCC=C(C)C)C=C3)OC(C)(CCC=C(C)C)C=C2 (configuration not stated)
[reply] 8 µg/mL

---

Reported MIC by item:
# Tested on: Staphylococcus aureus
# Experimental details: Antibacterial activity against […] Staphylococcus aureus ATCC43300 assessed as reduction in bacterial growth by broth microdilution assay
# Format: functional
Hi! Could you send only the number? It should be in µg/mL, unit omitted.

Worked set:
CC(=O)c1c(OCC(=O)NCCCN2CCN(C)CC2)c2c(c3c1OC(C)(CCC=C(C)C)C=C3)OC(C)(CCC=C(C)C)C=C2 (configuration not stated) :: 4
CNCCN(C)C(=O)COc1c2c(c3c(c1C(C)=O)OC(C)(CCC=C(C)C)C=C3)OC(C)(CCC=C(C)C)C=C2 (configuration not stated) :: 4
COc1c2c(c3c(c1C(=O)/C=C/c1ccc(OCCC[N+](C)(C)CCCN(C)C)cc1)OC(C)(CCC=C(C)C)C=C3)OC(C)(CCC=C(C)C)C=C2 (configuration not stated) :: 16
CC(=O)c1c(OCC(=O)NCCCN2CCCC2)c2c(c3c1OC(C)(CCC=C(C)C)C=C3)OC(C)(CCC=C(C)C)C=C2 (configuration not stated) :: 4

Kindly review the next compound as well.
[ask] Record request: MIC value, item CCN(CC)CCCNCCCOc1ccc(/C=C/C(=O)c2c(OC)c3c(c4c2OC(C)(CCC=C(C)C)C=C4)OC(C)(CCC=C(C)C)C=C3)cc1 (configuration not stated)
[reply] 16

---

# Experimental details: Hemolytic activity in RBC (unknown origin) assessed as hemolysis
# Type: toxicity, cell-based
# Condition label: red blood cells
Measured property: HC50

CC(=O)c1c(OCC(=O)NCCCN2CCN(C)CC2)c2c(c3c1OC(C)(CCC=C(C)C)C=C3)OC(C)(CCC=C(C)C)C=C2 (configuration not stated) :: 46 µg/mL

[ask] Record request: HC50 value, item CC(=O)c1c(OCC(=O)NCCN(C)C)c2c(c3c1OC(C)(CCC=C(C)C)C=C3)OC(C)(CCC=C(C)C)C=C2 (configuration not stated)
[reply] 112 µg/mL

---

# Tested on: Staphylococcus epidermidis
# Experimental details: Antibacterial activity against vancomycin-susceptible Staphylococcus epidermidis ATCC12228 assessed as reduction in bacterial growth by broth microdilution assay
# Type: functional
Reported MIC by item:
Hi! Could you send only the number? It should be in µg/mL, unit omitted.

CCN(CC)CCCNCCCOc1ccc(/C=C/C(=O)c2c(OC)c3c(c4c2OC(C)(CCC=C(C)C)C=C4)OC(C)(CCC=C(C)C)C=C3)cc1 (configuration not stated) :: 4
COc1c2c(c3c(c1C(=O)/C=C/c1ccc(OCCC[N+](C)(C)CCCN)cc1)OC(C)(CCC=C(C)C)C=C3)OC(C)(CCC=C(C)C)C=C2 (configuration not stated) :: 4
CCN(CC)CCCNC(=O)COc1c2c(c3c(c1C(C)=O)OC(C)(CCC=C(C)C)C=C3)OC(C)(CCC=C(C)C)C=C2 (configuration not stated) :: 2

[ask] Record request: MIC value, item COc1c2c(c3c(c1C(=O)/C=C/c1ccc(OCCCNCCCN4CCN(C)CC4)cc1)OC(C)(CCC=C(C)C)C=C3)OC(C)(CCC=C(C)C)C=C2 (configuration not stated)
[reply] 4

[ask] Follow-up item: COc1c2c(c3c(c1C(=O)/C=C/c1ccc(OCCCN(C)CCCN(C)C)cc1)OC(C)(CCC=C(C)C)C=C3)OC(C)(CCC=C(C)C)C=C2 (configuration not stated)
[reply] 2

---

# Tested on: Staphylococcus aureus
# Experimental details: Antibacterial activity against […] Staphylococcus aureus ATCC43300 assessed as reduction in bacterial growth by broth microdilution assay
# Type: functional
Measured property: MIC (mg/L)
Hi! Could you send only the number? It should be in mg/L, unit omitted.

Worked set:
CCN(CC)CCCNC(=O)COc1c2c(c3c(c1C(C)=O)OC(C)(CCC=C(C)C)C=C3)OC(C)(CCC=C(C)C)C=C2 (configuration not stated) :: 4
CC(=O)c1c(OCC(=O)NCCN(C)C)c2c(c3c1OC(C)(CCC=C(C)C)C=C3)OC(C)(CCC=C(C)C)C=C2 (configuration not stated) :: 2
COc1c2c(c3c(c1C(=O)/C=C/c1ccc(OCCCNCCCN4CCN(C)CC4)cc1)OC(C)(CCC=C(C)C)C=C3)OC(C)(CCC=C(C)C)C=C2 (configuration not stated) :: 8
COc1c2c(c3c(c1C(=O)/C=C/c1ccc(OCCCN(CCCN(C)C)CCCN(C)C)cc1)OC(C)(CCC=C(C)C)C=C3)OC(C)(CCC=C(C)C)C=C2 (configuration not stated) :: 8

Kindly review the next compound as well.
[ask] Record request: MIC value, item CC(=O)c1c(OCC(=O)N(C)CCCN(C)C)c2c(c3c1OC(C)(CCC=C(C)C)C=C3)OC(C)(CCC=C(C)C)C=C2 (configuration not stated)
[reply] 4

---

Reported log10(MIC) by item:
# Tested on: Bacillus subtilis
# Experimental details: Antibacterial activity against […] Bacillus subtilis ATCC9372 assessed as reduction in bacterial growth by broth microdilution assay
# Type: functional
Please interpret these as log10 of MIC where MIC is in µg/mL.

Worked set:
COc1c2c(c3c(c1C(=O)/C=C/c1ccc(OCCCN(CCCN(C)C)CCCN(C)C)cc1)OC(C)(CCC=C(C)C)C=C3)OC(C)(CCC=C(C)C)C=C2 (centres undefined) :: 0.90
CCNCCCOc1ccc(/C=C/C(=O)c2c(OC)c3c(c4c2OC(C)(CCC=C(C)C)C=C4)OC(C)(CCC=C(C)C)C=C3)cc1 (centres undefined) :: 2.11
CC(=O)c1c(OCC(=O)NCCCN2CCCC2)c2c(c3c1OC(C)(CCC=C(C)C)C=C3)OC(C)(CCC=C(C)C)C=C2 (centres undefined) :: 1.20
CCN(CC)CCCNCCCOc1ccc(/C=C/C(=O)c2c(OC)c3c(c4c2OC(C)(CCC=C(C)C)C=C4)OC(C)(CCC=C(C)C)C=C3)cc1 (centres undefined) :: 0.90
COc1c2c(c3c(c1C(=O)/C=C/c1ccc(OCCCNCCCN4CCN(C)CC4)cc1)OC(C)(CCC=C(C)C)C=C3)OC(C)(CCC=C(C)C)C=C2 (centres undefined) :: 0.60
CC(=O)c1c(OCC(=O)NCCCN2CCN(C)CC2)c2c(c3c1OC(C)(CCC=C(C)C)C=C3)OC(C)(CCC=C(C)C)C=C2 (centres undefined) :: 0.30
CNCCN(C)C(=O)COc1c2c(c3c(c1C(C)=O)OC(C)(CCC=C(C)C)C=C3)OC(C)(CCC=C(C)C)C=C2 (centres undefined) :: 1.20
CC(=O)c1c(OCC(=O)NCCN(C)C)c2c(c3c1OC(C)(CCC=C(C)C)C=C3)OC(C)(CCC=C(C)C)C=C2 (centres undefined) :: 0.30

[ask] Record request: log10(MIC) value, item COc1c2c(c3c(c1C(=O)/C=C/c1ccc(OCCC[N+](C)(C)CCCN)cc1)OC(C)(CCC=C(C)C)C=C3)OC(C)(CCC=C(C)C)C=C2 (centres undefined)
[reply] 0.90

[ask] Follow-up item: CC[N+](CC)(CC)CCCOc1ccc(/C=C/C(=O)c2c(OC)c3c(c4c2OC(C)(CCC=C(C)C)C=C4)OC(C)(CCC=C(C)C)C=C3)cc1 (centres undefined)
[reply] 1.81

[ask] Follow-up item: COc1c2c(c3c(c1C(=O)/C=C/c1ccc(OCCC[N+](C)(C)CCCN(C)C)cc1)OC(C)(CCC=C(C)C)C=C3)OC(C)(CCC=C(C)C)C=C2 (centres undefined)
[reply] 0.60
